We begin with a simple list: items and their reported viability, T/C.
Tested on: KRAS PDC multicell spheroid viability
method: Anticancer human tumor 825966-067-R-J1-PDC patient-derived colon carcinoma cell line growth inhibition [KRAS2]
details: second compound 10 µM; first compound 10 µM; hits give low values
Numbers only here, please. The scale is %.

Example cases with answers are listed next.
CC1OCC2(CCN(c3cnc(Sc4ccnc(N)c4Cl)c(N)n3)CC2)C1N (stereo not drawn) + CNCc1ccccc1-c1csc(C(C)Nc2nc(C)nc3cc(OC)c(OC)cc23)c1: 0.25
CCNC(=O)CC1N=C(c2ccc(Cl)cc2)c2cc(OC)ccc2-n2c(C)nnc21 (stereo not drawn) + COc1cc2nc(C)nc(NC(C)c3cc(N)cc(C(F)(F)F)c3)c2cc1OC1CCOC1: 1.45

Now look at this entry.
Give viability, T/C (KRAS PDC multicell spheroid viability) of the following compound: CC1(C)CCC(CN2CCN(c3ccc(C(=O)NS(=O)(=O)c4ccc(NCC5CCOCC5)c([N+](=O)[O-])c4)c(Oc4cnc5[nH]ccc5c4)c3)CC2)=C(c2ccc(Cl)cc2)C1 + CNCc1ccccc1-c1csc(C(C)Nc2nc(C)nc3cc(OC)c(OC)cc23)c1
0.23

====

Test system: KRAS PDC multicell spheroid viability
method: Anticancer human tumor 825966-067-R-J1-PDC cell line growth inhibition [KRAS2];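 further: spheroids exposed to compounds for 7 days; 100% = DMSO vehicle control viability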
details: second compound 1 µM; first compound 10 µM; hits give low values
recorded endpoint: viability, T/C (%)
Numbers only here, please. The scale is %.

Example cases with answers are listed next.
COc1cc(Nc2ncc3c(n2)-c2ccc(Cl)cc2C(c2c(F)cccc2OC)=NC3)ccc1C(=O)O + COc1cc2nc(C)nc(NC(C)c3cc(N)cc(C(F)(F)F)c3)c2cc1OC1CCOC1: 118
COC(=O)c1ccc2c(C(=Nc3ccc(N(C)C(=O)CN4CCN(C)CC4)cc3)c3ccccc3)c(O)[nH]c2c1 + COc1cc2nc(C)nc(NC(C)c3cc(N)cc(C(F)(F)F)c3)c2cc1OC1CCOC1: 0.13
COC(=O)c1ccc2c(C(=Nc3ccc(N(C)C(=O)CN4CCN(C)CC4)cc3)c3ccccc3)c(O)[nH]c2c1 + C=CC(=O)N1CCN(c2nc(=O)n(-c3c(C)ccnc3C(C)C)c3nc(-c4c(O)cccc4F)c(F)cc23)C(C)C1: 0.13
CC1OCC2(CCN(c3cnc(Sc4ccnc(N)c4Cl)c(N)n3)CC2)C1N (stereo not given) + COc1cc2nc(C)nc(NC(C)c3cc(N)cc(C(F)(F)F)c3)c2cc1OC1CCOC1: 34.7
COc1cc2nccc(Oc3ccc(NC(=O)C4(C(=O)Nc5ccc(F)cc5)CC4)cc3)c2cc1OC + C=CC(=O)N1CCN(c2nc(OCC3CCCN3C)nc3c2CCN(c2cccc4cccc(C)c24)C3)CC1CC#N: 2

Given the entry CCNC(=O)CC1N=C(c2ccc(Cl)cc2)c2cc(OC)ccc2-n2c(C)nnc21 (stereo not given) + COc1cc2nc(C)nc(NC(C)c3cc(N)cc(C(F)(F)F)c3)c2cc1OC1CCOC1 , report its measured viability, T/C.
70.8

Given the entry CC1(C)CCC(CN2CCN(c3ccc(C(=O)NS(=O)(=O)c4ccc(NCC5CCOCC5)c([N+](=O)[O-])c4)c(Oc4cnc5[nH]ccc5c4)c3)CC2)=C(c2ccc(Cl)cc2)C1 + CC1OCC2(CCN(c3cnc(Sc4ccnc(N)c4Cl)c(N)n3)CC2)C1N , report its measured viability, T/C.
4.73

Given the entry CC(C)NCC(C(=O)N1CCN(c2ncnc3c2C(C)CC3O)CC1)c1ccc(Cl)cc1 (stereo not given) + C=CC(=O)N1CCN(c2nc(=O)n(-c3c(C)ccnc3C(C)C)c3nc(-c4c(O)cccc4F)c(F)cc23)C(C)C1 , report its measured viability, T/C.
6.64

Given the entry CC1OCC2(CCN(c3cnc(Sc4ccnc(N)c4Cl)c(N)n3)CC2)C1N (stereo not given) + CNCc1ccccc1-c1csc(C(C)Nc2nc(C)nc3cc(OC)c(OC)cc23)c1 , report its measured viability, T/C.
22.1

Given the entry Cn1nccc1Nc1nccc(-c2cc3c(s2)C(C)(C)N(CCN2CCOCC2)C3=O)n1 + C=CC(=O)N1CCN(c2nc(OCC3CCCN3C)nc3c2CCN(c2cccc4cccc(C)c24)C3)CC1CC#N , report its measured viability, T/C.
56.4

====

System: KRAS PDC multicell spheroid viability
method: Anticancer human tumor 825966-067-R-J1-PDC cell line growth inhibition [KRAS2]; active = viability on the fitted dose curve at most 10% of control; inactive = the rest;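 further: spheroids exposed to compounds for 7 days; 100% = DMSO vehicle control viability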
details: second compound 10 µM; first compound 1 µM
Respond with a class label; see 1 for active, 0 for inactive

COc1cc2nccc(Oc3ccc(NC(=O)C4(C(=O)Nc5ccc(F)cc5)CC4)cc3)c2cc1OC + COc1cc2nc(C)nc(NC(C)c3cc(N)cc(C(F)(F)F)c3)c2cc1OC1CCOC1: 1
CCN1CCN(Cc2ccc(Nc3ncc(F)c(-c4cc(F)c5nc(C)n(C(C)C)c5c4)n3)nc2)CC1 + C=CC(=O)N1CCN(c2nc(=O)n(-c3c(C)ccnc3C(C)C)c3nc(-c4c(O)cccc4F)c(F)cc23)C(C)C1: 0
CCNC(=O)CC1N=C(c2ccc(Cl)cc2)c2cc(OC)ccc2-n2c(C)nnc21 (configuration not stated) + CC1OCC2(CCN(c3cnc(Sc4ccnc(N)c4Cl)c(N)n3)CC2)C1N: 0
CC1(C)CCC(CN2CCN(c3ccc(C(=O)NS(=O)(=O)c4ccc(NCC5CCOCC5)c([N+](=O)[O-])c4)c(Oc4cnc5[nH]ccc5c4)c3)CC2)=C(c2ccc(Cl)cc2)C1 + COc1cc2nc(C)nc(NC(C)c3cc(N)cc(C(F)(F)F)c3)c2cc1OC1CCOC1: 0
COc1cc(Nc2ncc3c(n2)-c2ccc(Cl)cc2C(c2c(F)cccc2OC)=NC3)ccc1C(=O)O + COc1cc2nc(C)nc(NC(C)c3cc(N)cc(C(F)(F)F)c3)c2cc1OC1CCOC1: 1
Cn1nccc1Nc1nccc(-c2cc3c(s2)C(C)(C)N(CCN2CCOCC2)C3=O)n1 + CC1OCC2(CCN(c3cnc(Sc4ccnc(N)c4Cl)c(N)n3)CC2)C1N: 0

Please let me know the test result on file for COC(=O)c1ccc2c(C(=Nc3ccc(N(C)C(=O)CN4CCN(C)CC4)cc3)c3ccccc3)c(O)[nH]c2c1 + CC1OCC2(CCN(c3cnc(Sc4ccnc(N)c4Cl)c(N)n3)CC2)C1N .
1

Please let me know the test result on file for COC(=O)c1ccc2c(C(=Nc3ccc(N(C)C(=O)CN4CCN(C)CC4)cc3)c3ccccc3)c(O)[nH]c2c1 + COc1cc2nc(C)nc(NC(C)c3cc(N)cc(C(F)(F)F)c3)c2cc1OC1CCOC1 .
1

Please let me know the test result on file for CC(=O)OC12COC1CC(O)C1(C)C(=O)C(O)C3=C(C)C(OC(=O)C(O)C(NC(=O)OC(C)(C)C)c4ccccc4)CC(O)(C(OC(=O)c4ccccc4)C21)C3(C)C (configuration not stated) + C=CC(=O)N1CCN(c2nc(=O)n(-c3c(C)ccnc3C(C)C)c3nc(-c4c(O)cccc4F)c(F)cc23)C(C)C1 .
0

Please let me know the test result on file for CCN1CCN(Cc2ccc(Nc3ncc(F)c(-c4cc(F)c5nc(C)n(C(C)C)c5c4)n3)nc2)CC1 + CNCc1ccccc1-c1csc(C(C)Nc2nc(C)nc3cc(OC)c(OC)cc23)c1 .
1

Please let me know the test result on file for COc1cc(Nc2ncc3c(n2)-c2ccc(Cl)cc2C(c2c(F)cccc2OC)=NC3)ccc1C(=O)O + CC1OCC2(CCN(c3cnc(Sc4ccnc(N)c4Cl)c(N)n3)CC2)C1N .
0

Please let me know the test result on file for CC(=O)OC12COC1CC(O)C1(C)C(=O)C(O)C3=C(C)C(OC(=O)C(O)C(NC(=O)OC(C)(C)C)c4ccccc4)CC(O)(C(OC(=O)c4ccccc4)C21)C3(C)C (configuration not stated) + CNCc1ccccc1-c1csc(C(C)Nc2nc(C)nc3cc(OC)c(OC)cc23)c1 .
1

====

Tested on: KRAS PDC multicell spheroid viability
method: Anticancer human tumor 825966-067-R-J1-PDC cell line growth inhibition [KRAS2];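 further: spheroids exposed to compounds for 7 days; 100% = DMSO vehicle control viability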
details: second compound 10 µM; first compound 1 µM; hits give low values
viability, T/C vs 40%: less than gives criterion met; not less than gives criterion not met.

Examples from the recorded data:
CC1OCC2(CCN(c3cnc(Sc4ccnc(N)c4Cl)c(N)n3)CC2)C1N (stereo not given) + COc1cc2nc(C)nc(NC(C)c3cc(N)cc(C(F)(F)F)c3)c2cc1OC1CCOC1: criterion met
CC1OCC2(CCN(c3cnc(Sc4ccnc(N)c4Cl)c(N)n3)CC2)C1N (stereo not given) + C=CC(=O)N1CCN(c2nc(=O)n(-c3c(C)ccnc3C(C)C)c3nc(-c4c(O)cccc4F)c(F)cc23)C(C)C1: criterion not met
CC(C)NCC(C(=O)N1CCN(c2ncnc3c2C(C)CC3O)CC1)c1ccc(Cl)cc1 (stereo not given) + CNCc1ccccc1-c1csc(C(C)Nc2nc(C)nc3cc(OC)c(OC)cc23)c1: criterion met
COc1cc2nccc(Oc3ccc(NC(=O)C4(C(=O)Nc5ccc(F)cc5)CC4)cc3)c2cc1OC + C=CC(=O)N1CCN(c2nc(=O)n(-c3c(C)ccnc3C(C)C)c3nc(-c4c(O)cccc4F)c(F)cc23)C(C)C1: criterion not met

State whether 40% exceeds viability, T/C recorded for CC1COCCN1c1cc(-c2ccnn2C)c2ccnc(-c3ccn[nH]3)c2n1 (stereo not given) + COc1cc2nc(C)nc(NC(C)c3cc(N)cc(C(F)(F)F)c3)c2cc1OC1CCOC1 .
criterion met

State whether 40% exceeds viability, T/C recorded for CC1(C)CCC(CN2CCN(c3ccc(C(=O)NS(=O)(=O)c4ccc(NCC5CCOCC5)c([N+](=O)[O-])c4)c(Oc4cnc5[nH]ccc5c4)c3)CC2)=C(c2ccc(Cl)cc2)C1 + CC1OCC2(CCN(c3cnc(Sc4ccnc(N)c4Cl)c(N)n3)CC2)C1N .
criterion not met

This collection of values is drawn from PubChem BioAssay AID1963865.
